B1: TPR t1 (parent)
chain: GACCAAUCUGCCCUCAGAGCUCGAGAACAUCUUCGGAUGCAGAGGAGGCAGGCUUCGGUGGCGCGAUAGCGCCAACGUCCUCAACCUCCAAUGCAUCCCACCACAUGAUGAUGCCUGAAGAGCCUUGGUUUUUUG

Variants of: B1
PROTOCOL NOTES: polymerase ribozyme fitness, log enrichment relative to wild type (log ratio); higher = more active; in vitro selection for triplet polymerase activity
Threshold check on polymerase ribozyme fitness (log ratio): at or above -2 gives class 1, strictly below gives class 0.

- MUTATION: "G39U G77C"
  CAT: "class 1"
- MUTATION: "C101U U112A"
  CAT: "class 1"
- MUTATION: "C11U G42C A75G U112C A121U G127A"
  CAT: "class 1"
- MUTATION: "C40G C53U"
  CAT: "class 1"
- MUTATION: "C22U C70U"
  CAT: "class 0"
- MUTATION: "C62U C114U"
  CAT: "class 1"
- MUTATION: "G36U C70G C89U"
  CAT: "class 0"
- MUTATION: "C28A G71C"
  CAT: "class 0"
- MUTATION: "C4G C15A U54A A121C"
  CAT: "class 0"
- MUTATION: "G36A G42A C70U C72U"
  CAT: "class 0"
- MUTATION: "C15G G42C G60U C94U A118U"
  CAT: "class 0"
- MUTATION: "G71U C114G"
  CAT: "class 0"
- MUTATION: "A27U C76U"
  CAT: "class 0"
- MUTATION: "G47U G61A C123A"
  CAT: "class 1"
- MUTATION: "G69U U87A G127U U130A G135U"
  CAT: "class 0"
- MUTATION: "G47A G110A"
  CAT: "class 1"
- MUTATION: "C20A C64G C114A"
  CAT: "class 0"
- MUTATION: "A18C G48A C94G"
  CAT: "class 0"
- MUTATION: "G69U C70U"
  CAT: "class 1"
- MUTATION: "A6U C20U A37U G61A"
  CAT: "class 1"
- MUTATION: "C86A A111C"
  CAT: "class 1"
- MUTATION: "G63C C89U"
  CAT: "class 1"
- MUTATION: "C4U C12G C15G G117C"
  CAT: "class 1"
- MUTATION: "G10U C12A C49U A118U U131G"
  CAT: "class 1"
- MUTATION: "G57C G69C U131A"
  CAT: "class 1"
- MUTATION: "C62A U81G"
  CAT: "class 0"
- MUTATION: "A37C U38G"
  CAT: "class 1"
- MUTATION: "C8U C62U C64A"
  CAT: "class 0"
- MUTATION: "G69A G117A"
  CAT: "class 0"
- MUTATION: "A2G C82G"
  CAT: "class 1"
- MUTATION: "C70U C101A"
  CAT: "class 1"
- MUTATION: "C97G G127U"
  CAT: "class 0"
- MUTATION: "A43C U55C C64U A84G G110U U125A"
  CAT: "class 0"
- MUTATION: "U78C C82A C85U G93A"
  CAT: "class 1"
- MUTATION: "U9G C89U"
  CAT: "class 1"
- MUTATION: "G42A U54A C72G C86U G110A C124G"
  CAT: "class 0"
- MUTATION: "G122U U130G"
  CAT: "class 1"
- MUTATION: "G48U G61U U112C"
  CAT: "class 1"
- MUTATION: "G47U U116C"
  CAT: "class 1"
- MUTATION: "G48A U59A G69C A84U A118C"
  CAT: "class 0"
- MUTATION: "G36U G47U"
  CAT: "class 0"
- MUTATION: "G19C G63A U87C"
  CAT: "class 0"
- MUTATION: "A18C C53U C70U"
  CAT: "class 0"
- MUTATION: "A43U C49G"
  CAT: "class 0"
- MUTATION: "C56U C72G U129A"
  CAT: "class 1"
- MUTATION: "U96A U112C G127C"
  CAT: "class 1"
- MUTATION: "A27C A84G"
  CAT: "class 0"
- MUTATION: "G47A C82G U106A"
  CAT: "class 1"
- MUTATION: "A16G G47A"
  CAT: "class 0"
- MUTATION: "C13U C15U U54G U81A U96A"
  CAT: "class 0"
- MUTATION: "U59A G117A"
  CAT: "class 1"
- MUTATION: "C62A U87G U106G"
  CAT: "class 0"
- MUTATION: "G25U G35A A41U U112G"
  CAT: "class 0"
- MUTATION: "C4A C40U C102G C115A"
  CAT: "class 0"
- MUTATION: "U87A C99U"
  CAT: "class 0"
- MUTATION: "U9C A29U G61A C88U C102U"
  CAT: "class 0"
- MUTATION: "A16C"
  CAT: "class 0"
- MUTATION: "A29G G63A"
  CAT: "class 1"
- MUTATION: "C15U A18U G44U G69U G117C A121C"
  CAT: "class 0"
- MUTATION: "C40G G61C A118U"
  CAT: "class 1"
- MUTATION: "C98A A111U"
  CAT: "class 0"
- MUTATION: "G10U G39A C98U"
  CAT: "class 1"
- MUTATION: "C11U C124A"
  CAT: "class 1"
- MUTATION: "G47A C72A"
  CAT: "class 1"
- MUTATION: "G48A C73A"
  CAT: "class 1"
- MUTATION: "A43U A46G U96G U112A G128A"
  CAT: "class 0"
- MUTATION: "C11U U54A G60A G110C A121U"
  CAT: "class 0"
- MUTATION: "C20A G42U G47U C53U"
  CAT: "class 0"
- MUTATION: "U78C C85G C124A"
  CAT: "class 1"
- MUTATION: "A46U G48A G52A C62A C88U C124U"
  CAT: "class 0"
- MUTATION: "A50U C114A"
  CAT: "class 0"
- MUTATION: "C70G G135A"
  CAT: "class 0"
- MUTATION: "C53U G60U"
  CAT: "class 1"
- MUTATION: "C8G C40A U78C"
  CAT: "class 1"
- MUTATION: "C13G C62U"
  CAT: "class 1"
- MUTATION: "G71C C85A"
  CAT: "class 0"
